tested on: NCI-H226 lung; assay: NCI-60 one-dose screen, 48 h (100 = growth as untreated, 0 = no growth, -100 = all killed); conditions: 10 µM unless noted
The panel holds about 83,000 compounds, 20% with a hit somewhere; the sample as a whole holds those more often. The source made the active and inactive calls. Rule for the calls: active = growth percent below 10; inactive = the rest.

compound: CCOC(=O)c1cnn(CC(O)CC)c1NC(=O)NCc1ccccc1C(F)(F)F (stereo unspecified)
growth: 106% (inactive)

compound: COc1ccc(C2=C(CN)C(O)NC(=NCC(=O)c3ccc4ccccc4c3)N2)cc1 (stereo unspecified)
growth: 100% (inactive)

compound: N#C/C(=C\c1ccccc1Cl)c1cc2ccccc2[nH]1
growth: 75.2% (inactive)

compound: C=CCOc1ccc(/C=C2\SC(=S)N(CCc3ccc(O)cc3)C2=O)cc1
growth: 91.6% (inactive)

compound: COc1ccccc1/C=C1\COc2ccc(O)c(O)c2C1=O
growth: 76% (inactive)

compound: COc1ccc(Oc2nc(Nc3ccc(N4CCOCC4)cc3)ncc2NC(=O)c2cccc(C(F)(F)F)c2)cc1
growth: 81.2% (inactive)

compound: NS(=O)(=O)OCC1OC(n2cnc3cncnc32)C(O)C1O (stereo unspecified)
growth: 16.8% [0.1 µM] (inactive)

compound: Cc1[nH]c(C(=O)Nc2nc3ccc(NC(=O)CCN)cc3s2)c(Cl)c1Cl
growth: 86.7% (inactive)

compound: Cc1ccc2[nH]c(=S)[nH]c(=O)c2c1
growth: 102% (inactive)

compound: CN(C)CCCn1c2nc(=O)[nH]c(=O)c-2nc2cc(Cl)c(Cl)cc21
growth: 105% (inactive)

compound: C=C(C)[C@@H]1CC[C@]2(C)[C@H](CC(=O)N[C@H]3[C@@H]4C[C@](C)(C(=O)OC)CC[C@]4(C)CC[C@]32C)[C@@]1(C)CCC#N
growth: 78.1% (inactive)

compound: N=c1c2c(-c3ccccc3)c(-c3ccccc3)oc2ncn1NC(=O)c1cccnc1
growth: 108% (inactive)

compound: Nc1nc(Cl)nc2c1ncn2C1OC(CO)C(O)C1O (stereo unspecified)
growth: 110% (inactive)

compound: COc1ccc(/C=N/NC(=O)CN2CCN(c3cc4c(cc3F)c(=O)c(C(=O)O)cn4C3CC3)CC2)cc1O
growth: 112% (inactive)

compound: COC(=O)N/N=C/c1c[n+]([O-])c2ccccc2[n+]1[O-]
growth: 109% (inactive)

compound: Cc1ccc(/C=C(\C#N)c2cc3ccccc3[nH]2)cc1
growth: 95.3% (inactive)

compound: COc1cc(CNC(=O)CCCC/C=C/C(C)C)ccc1OCc1cn(-c2ccc([N+](=O)[O-])cc2)nn1
growth: 89.6% (inactive)

compound: O=C(O)C1C2CCC1C(O)C2 (stereo unspecified)
growth: 94.5% (inactive)

compound: COc1ccc(Nc2nn3c(SCC(=O)c4ccc(C)cc4)nnc3s2)cc1
growth: 84.8% (inactive)

compound: CCCN1C(=O)/C(=c2\sc3n(c2=O)C2C(NN=3)N(CC)C(=O)N2CC)c2ccccc21 (stereo unspecified)
growth: 57.1% (inactive)

compound: O=C1C(N2CCOCC2)=C(I)C(=O)c2ncccc21
growth: 84.8% (inactive)
